Settings: in n-propanol, 313.15 K
parameter: solubility (mole fraction)

- O=S(=O)(c1ccccc1)c1ccc(Cl)cc1: 0.0102

----------
Details: in n-propanol, 293.15 K
parameter: solubility (mole fraction)

- O=S(=O)(c1ccccc1)c1ccc(Cl)cc1: 0.00555

----------
Conditions: in methanol, 293.15 K
parameter: solubility (mole fraction)

• O=S(=O)(c1ccccc1)c1ccc(Cl)cc1 = 0.00049

----------
Settings: in isopropanol, 278.15 K
parameter: solubility (mole fraction)

- O=S(=O)(c1ccccc1)c1ccc(Cl)cc1: 0.00198

----------
Settings: in water, 308.15 K
parameter: solubility (mole fraction)

* O=S(=O)(c1ccccc1)c1ccc(Cl)cc1 | 1.1e-05

----------
Conditions: in ethanol, 308.15 K
parameter: solubility (mole fraction)

- O=S(=O)(c1ccccc1)c1ccc(Cl)cc1: 0.00221

----------
Conditions: in n-propanol, 303.15 K
parameter: solubility (mole fraction)

- O=S(=O)(c1ccccc1)c1ccc(Cl)cc1: 0.00754

----------
Details: in isopropanol, 283.15 K
parameter: solubility (mole fraction)

* O=S(=O)(c1ccccc1)c1ccc(Cl)cc1 | 0.00236

----------
Conditions: in isopropanol, 288.15 K
parameter: solubility (mole fraction)

* O=S(=O)(c1ccccc1)c1ccc(Cl)cc1 | 0.00283

----------
Conditions: in methanol, 283.15 K
parameter: solubility (mole fraction)

• O=S(=O)(c1ccccc1)c1ccc(Cl)cc1 = 0.000332

----------
Details: in methanol, 308.15 K
parameter: solubility (mole fraction)

- O=S(=O)(c1ccccc1)c1ccc(Cl)cc1: 0.000781

----------
Details: in ethanol, 323.15 K
parameter: solubility (mole fraction)

- O=S(=O)(c1ccccc1)c1ccc(Cl)cc1: 0.00358

----------
Details: in methanol, 298.15 K
parameter: solubility (mole fraction)

• O=S(=O)(c1ccccc1)c1ccc(Cl)cc1 = 0.000572

----------
Conditions: in water, 288.15 K
parameter: solubility (mole fraction)

* O=S(=O)(c1ccccc1)c1ccc(Cl)cc1 | 4.7e-06

----------
Conditions: in isopropanol, 323.15 K
parameter: solubility (mole fraction)

- O=S(=O)(c1ccccc1)c1ccc(Cl)cc1: 0.00838

----------
Conditions: in methanol, 278.15 K
parameter: solubility (mole fraction)

- O=S(=O)(c1ccccc1)c1ccc(Cl)cc1: 0.000276

----------
Conditions: in water, 323.15 K
parameter: solubility (mole fraction)

- O=S(=O)(c1ccccc1)c1ccc(Cl)cc1: 1.94e-05

----------
Conditions: in methanol, 323.15 K
parameter: solubility (mole fraction)

- O=S(=O)(c1ccccc1)c1ccc(Cl)cc1: 0.00125

----------
Conditions: in ethanol, 293.15 K
parameter: solubility (mole fraction)

- O=S(=O)(c1ccccc1)c1ccc(Cl)cc1: 0.00142

----------
Conditions: in ethanol, 298.15 K
parameter: solubility (mole fraction)

• O=S(=O)(c1ccccc1)c1ccc(Cl)cc1 = 0.00166

----------
Conditions: in ethanol, 313.15 K
parameter: solubility (mole fraction)

• O=S(=O)(c1ccccc1)c1ccc(Cl)cc1 = 0.00261

----------
Conditions: in n-propanol, 288.15 K
parameter: solubility (mole fraction)

- O=S(=O)(c1ccccc1)c1ccc(Cl)cc1: 0.00479

----------
Details: in n-propanol, 308.15 K
parameter: solubility (mole fraction)

* O=S(=O)(c1ccccc1)c1ccc(Cl)cc1 | 0.00885

----------
Details: in water, 318.15 K
parameter: solubility (mole fraction)

- O=S(=O)(c1ccccc1)c1ccc(Cl)cc1: 1.61e-05

----------
Details: in water, 303.15 K
parameter: solubility (mole fraction)

* O=S(=O)(c1ccccc1)c1ccc(Cl)cc1 | 9.03e-06

----------
Details: in ethanol, 278.15 K
parameter: solubility (mole fraction)

* O=S(=O)(c1ccccc1)c1ccc(Cl)cc1 | 0.00091

----------
Details: in isopropanol, 298.15 K
parameter: solubility (mole fraction)

• O=S(=O)(c1ccccc1)c1ccc(Cl)cc1 = 0.00395

----------
Conditions: in isopropanol, 303.15 K
parameter: solubility (mole fraction)

- O=S(=O)(c1ccccc1)c1ccc(Cl)cc1: 0.00468

----------
Details: in n-propanol, 298.15 K
parameter: solubility (mole fraction)

• O=S(=O)(c1ccccc1)c1ccc(Cl)cc1 = 0.00645

----------
Details: in methanol, 318.15 K
parameter: solubility (mole fraction)

• O=S(=O)(c1ccccc1)c1ccc(Cl)cc1 = 0.00105

----------
Conditions: in n-propanol, 278.15 K
parameter: solubility (mole fraction)

- O=S(=O)(c1ccccc1)c1ccc(Cl)cc1: 0.00351

----------
Details: in water, 278.15 K
parameter: solubility (mole fraction)

• O=S(=O)(c1ccccc1)c1ccc(Cl)cc1 = 2.88e-06

----------
Settings: in n-propanol, 283.15 K
parameter: solubility (mole fraction)

- O=S(=O)(c1ccccc1)c1ccc(Cl)cc1: 0.00411

Reference for the values: BigSolDB 2.1
